System: Influenza type A (strain A/PR/8/34, ATCC VR-95)
method: Influenza antiviral assay: inhibition of virus-induced cytopathic effects (CPE) in MDCK cells, XTT dye reduction
Assay type: cell-based
assay-context: Influenza A virus, H1N1 / PR/8, MDCK, 96 h, strain A/PR/8/34, MDCK cells, CPE inhibition at 4 days
pEC50: −log10 of the molar value.
# pEC50 listing for each entry below

Consider the reported pEC50 for these molecules:
# molecule, metric-name, experimental-result
measured = [
    ("CC1N(C)C(=O)c2c(O)c(=O)ccn2N1C12c3ccccc3CC1Cc1c2ccc(F)c1F (stereo not shown)", "pEC50", "> 6.90"),
    ("CC1N(CCF)C(=O)c2c(O)c(=O)ccn2N1C12c3ccccc3CC1Cc1c(F)cccc12 (stereo not shown)", "pEC50", "6.60 to 6.90"),
    ("O=C1c2c(O)c(=O)ccn2N(C23c4ccccc4CC2Cc2c(F)cccc23)CN1C1CC1 (stereo not shown)", "pEC50", "6.60 to 6.90"),
]

--- query ---
Return reported pEC50; argument: CCN1CN(C23c4ccccc4CC2Cc2c(Cl)cccc23)n2ccc(=O)c(O)c2C1=O (stereo not shown)
> 6.90
